- Assayed Target: WT Mcl-1 protein (Homo sapiens)
- Sequence (Q07820 whole entry): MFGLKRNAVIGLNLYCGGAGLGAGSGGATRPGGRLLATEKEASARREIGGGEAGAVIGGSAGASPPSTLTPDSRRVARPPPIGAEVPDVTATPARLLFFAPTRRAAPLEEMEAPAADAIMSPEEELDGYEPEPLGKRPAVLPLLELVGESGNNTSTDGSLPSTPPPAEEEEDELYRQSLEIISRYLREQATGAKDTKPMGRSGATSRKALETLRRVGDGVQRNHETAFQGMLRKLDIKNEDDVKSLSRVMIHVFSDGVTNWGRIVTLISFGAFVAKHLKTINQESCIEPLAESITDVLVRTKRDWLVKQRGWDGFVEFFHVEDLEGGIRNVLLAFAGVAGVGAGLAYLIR
- Assay: Isothermal titration calorimetry (ITC), MI-223/Mcl-1 binding
- Assay Conditions: 1-site binding mode, read-out: binding constant (KD)
Measurement Kind: pKd
Here pKd is given on a logarithmic scale as minus log10 of the concentration in mol/L.

Ask: Hi! What's the reported pKd for CCOC1=CC=CC(=CNn2c(-c3ccccc3Cl)nc3ccccc3c2=O)C1=O [MI-223] on WT Mcl-1 protein (Homo sapiens)?
Result: 6.79

Values from patent US11524000B2
